Procedure Summary: P-glycoprotein substrates identified in KB-8-5-11 adenocarcinoma cell line, qHTS therapeutic library screen (AID 1346987); note: nearly all actives have a fitted effect of over 65% in size
Test Context: KB-8-5-11 (P-gp overexpressing) viability, CellTiter-Glo, 72 h; series mostly up to 44.5 µM
Procedure: The ATP-binding cassette transporters P-glycoprotein (P-gp) is known to limit brain penetration of many chemotherapy drugs. […] All cell lines were plated into 1536-well plates at 500 cells/well in 5 uL media. […] CellTiter-Glo reagent (Promega) was dispensed into the wells, incubated for 5 min and luminescence was read on a ViewLux instrument (Perkin-Elmer). […]
Inconclusive results are not listed. The source made the active and inactive calls. Calls come from the whole dose curve; as a rule, active = well fitted inhibition curve with a large enough effect; inconclusive = small, poorly fitted or top-dose-only effect; inactive = flat fitted curve, though single readings scatter.
Reported Endpoint: activity change, negative = cytotoxicity

Known results for molecules:
[
  {
    "Molecule": "COc1cc2c(c(O)c1OC/C=C(\\C)CC/C=C(/C)CCC=C(C)C)CN(C(CCC(=O)O)C(=O)O)C2=O (stereo not given)",
    "Result": "inactive"
  },
  {
    "Molecule": "CC(=O)O[C@H]1C[C@@H](O)C(C)(C)C2C[C@@H](OC(C)=O)[C@@]3(C)C4=CCC(C(CO)CC(O)C5OC5(C)C)[C@]4(C)CCC3[C@]21C (stereo not given in full)",
    "Result": "inactive"
  },
  {
    "Molecule": "O=C(O)CCc1ccc(NCc2cccc3c2CCCN3CCOc2ccccc2)cc1F",
    "Result": "inactive"
  },
  {
    "Molecule": "CC(=O)/C=C/C1(O)C(C)=CC(=O)CC1(C)C (stereo not given)",
    "Result": "inactive"
  },
  {
    "Molecule": "CC1=C(CC/C(C)=C/C(=O)O)[C@@]2(C)CCCC(C)(C)C2CC1=O (stereo not given in full)",
    "Result": "inactive"
  },
  {
    "Molecule": "CCC1=C(C)C(=O)C(C)CC12C(=O)CCC2C(=O)O (stereo not given)",
    "Result": "inactive"
  },
  {
    "Molecule": "COc1c(O)cc2c(c1O)C(=O)O[C@H](C)[C@H]2O",
    "Result": "inactive"
  },
  {
    "Molecule": "CC(=O)OC1(C)CC(O)C2(O)C=COC(OC3OC(CO)C(O)C(O)C3O)C12 (stereo not given)",
    "Result": "inactive"
  },
  {
    "Molecule": "CNC(=O)c1ccc2c(c1)CCO[C@H]2CCN1CCN(c2ccc(C(N)=O)cc2)CC1",
    "Result": "inactive"
  },
  {
    "Molecule": "C=C1CC/C=C(/CO)C(=O)C[C@@H]2[C@@H]1C[C@@]2(C)COC(C)=O",
    "Result": "inactive"
  }
]

Report activity change, negative = cytotoxicity for each item below.
1. COC(=O)C1=COC(OC2OC(CO)C(O)C(O)C2O)C2C(COC(=O)/C=C/c3ccc(O)c(O)c3)C(O)C(O)C12 (stereo not given)
2. C=C1C(O)CC2C(C(=O)O)=COC(O[C@@H]3O[C@H](COC(=O)c4ccc(O)cc4)[C@@H](O)[C@H](O)[C@H]3O)C12 (stereo not given in full)
3. COc1ccc(OC2OC(CO[C@@H]3O[C@@H](C)[C@H](O)[C@@H](O)[C@H]3O)C(O)C(O)C2O)cc1OC (stereo not given in full)
4. COc1ccc2c(c1)N1C(=O)C[C@@]34C=CC[N@+]5([O-])CC[C@H]2[C@H](CC3)[C@@]145
5. CC1CC(=O)C2C(O)(C1)CC(O)C13OC1c1c(O)cccc1C(=O)C23O (stereo not given)
6. CC1=C2C[C@H]3OC(=O)[C@H](O)[C@@]4(O)[C@@H](C)[C@@H](O)[C@H](O)C([C@@]2(C)[C@H](O)[C@@H](O)C1)[C@@]34C (stereo not given in full)
7. Cc1c(O)cc2c(c1O)COC1(O)CCCOC21 (stereo not given)

["inactive", "inactive", "inactive", "inactive", "inactive", "inactive", "inactive"]
